- assayed.target: EPHB2 (UniProt P29323)
- Sequence (P29323 whole entry, looked up): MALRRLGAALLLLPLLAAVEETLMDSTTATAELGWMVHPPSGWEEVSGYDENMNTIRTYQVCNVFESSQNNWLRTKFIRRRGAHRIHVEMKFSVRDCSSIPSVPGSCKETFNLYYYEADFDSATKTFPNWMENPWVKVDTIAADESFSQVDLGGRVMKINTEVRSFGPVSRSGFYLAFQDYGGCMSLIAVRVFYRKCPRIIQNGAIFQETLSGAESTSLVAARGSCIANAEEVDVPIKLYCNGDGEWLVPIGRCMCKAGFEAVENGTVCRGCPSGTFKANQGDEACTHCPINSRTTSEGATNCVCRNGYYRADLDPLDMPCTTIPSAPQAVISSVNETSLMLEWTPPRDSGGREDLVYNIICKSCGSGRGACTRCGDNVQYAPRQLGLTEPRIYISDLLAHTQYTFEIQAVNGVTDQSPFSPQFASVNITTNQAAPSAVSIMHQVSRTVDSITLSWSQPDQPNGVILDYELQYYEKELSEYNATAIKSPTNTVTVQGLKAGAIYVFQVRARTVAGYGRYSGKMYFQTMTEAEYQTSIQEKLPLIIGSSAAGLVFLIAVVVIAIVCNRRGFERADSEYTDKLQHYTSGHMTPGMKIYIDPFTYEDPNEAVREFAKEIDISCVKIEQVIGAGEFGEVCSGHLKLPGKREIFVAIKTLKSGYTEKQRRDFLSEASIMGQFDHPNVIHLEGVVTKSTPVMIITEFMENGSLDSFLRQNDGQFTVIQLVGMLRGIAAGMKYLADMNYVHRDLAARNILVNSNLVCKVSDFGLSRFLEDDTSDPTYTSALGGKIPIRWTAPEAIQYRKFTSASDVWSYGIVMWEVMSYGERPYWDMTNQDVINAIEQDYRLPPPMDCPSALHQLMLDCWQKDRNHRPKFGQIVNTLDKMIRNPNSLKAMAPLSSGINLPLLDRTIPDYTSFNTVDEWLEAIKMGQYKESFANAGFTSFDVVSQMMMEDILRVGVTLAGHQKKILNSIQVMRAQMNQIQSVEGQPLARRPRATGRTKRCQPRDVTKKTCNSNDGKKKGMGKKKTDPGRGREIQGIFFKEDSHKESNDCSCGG
- procedure.summary: phosphorylation enrichment, bacterial display (enrichment ratio); higher = better substrate or ligand; peptides without Tyr show the background
quantity.name: phosphorylation enrichment

{"columns": ["sequence.entry", "phosphorylation enrichment"],
 "data": [
  ["SIKGKYVTALY [KCNH2_Y611_D609G]", 0.374],
  ["VSSPKYGSDDE [TMCC2_Y473]", 0.505],
  ["PYVYYYSYLLK [PTEN_Y178_R173P]", 1.92]
]}

EEEFEYMNRRR [ERBB3_Y1199_D1194E_YF] yielded phosphorylation enrichment of 0.532

IENKLYGMSDS [RET_Y1062_P1067S] yielded phosphorylation enrichment of 0.524

SEDSEYYKAFE [CASQ2_Y178] yielded phosphorylation enrichment of 0.611

MEVEQYIFVKC [CYBB_Y324_G322E] yielded phosphorylation enrichment of 0.868

---

sequences and their reported phosphorylation enrichment
- assayed.target: Fes (UniProt P07332)
- Sequence (P07332 whole entry, looked up): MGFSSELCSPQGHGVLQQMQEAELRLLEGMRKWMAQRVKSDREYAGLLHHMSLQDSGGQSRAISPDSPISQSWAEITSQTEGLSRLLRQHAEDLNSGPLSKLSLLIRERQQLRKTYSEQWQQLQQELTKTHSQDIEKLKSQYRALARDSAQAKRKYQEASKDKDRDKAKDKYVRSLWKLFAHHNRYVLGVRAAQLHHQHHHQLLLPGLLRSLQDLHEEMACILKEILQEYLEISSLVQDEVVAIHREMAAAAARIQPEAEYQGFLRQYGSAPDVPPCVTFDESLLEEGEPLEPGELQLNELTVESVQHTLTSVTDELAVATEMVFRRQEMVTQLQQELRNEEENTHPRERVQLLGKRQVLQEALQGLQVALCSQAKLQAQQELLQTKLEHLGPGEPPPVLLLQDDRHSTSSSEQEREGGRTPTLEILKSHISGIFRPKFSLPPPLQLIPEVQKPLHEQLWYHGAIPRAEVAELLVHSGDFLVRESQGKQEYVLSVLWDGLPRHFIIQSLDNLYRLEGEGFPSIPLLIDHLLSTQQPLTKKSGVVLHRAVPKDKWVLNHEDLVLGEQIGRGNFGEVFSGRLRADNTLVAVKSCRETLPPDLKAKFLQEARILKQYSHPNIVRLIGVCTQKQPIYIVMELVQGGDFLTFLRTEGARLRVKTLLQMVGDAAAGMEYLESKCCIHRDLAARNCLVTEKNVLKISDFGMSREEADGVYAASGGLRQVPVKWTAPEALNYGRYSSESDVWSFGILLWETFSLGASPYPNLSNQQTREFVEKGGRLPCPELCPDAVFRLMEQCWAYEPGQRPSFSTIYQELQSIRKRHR
- procedure.summary: phosphorylation enrichment, bacterial display (enrichment ratio); higher = better substrate or ligand; peptides without Tyr show the background
Give only the figure.

# annotated cases, reported phosphorylation enrichment shown
{"columns": ["sequence.entry", "quantity.name", "test.result"],
 "data": [
  ["TFWKKYRTFWK [CCDC70_Y125]", "phosphorylation enrichment", 0.8],
  ["ELAINYQEQAS [SLC9A9_Y591]", "phosphorylation enrichment", 0.869],
  ["STGWSYAGVAV [KLHL3_Y577_R575W]", "phosphorylation enrichment", 0.776]
]}

VVTGPYEKPSL [KIR3DS1_Y221_L220P] yielded phosphorylation enrichment of 0.746

AVEDQYYRVDC [FHL1_Y207_C209R] yielded phosphorylation enrichment of 1.46

HFGCVYRGTLL [MET_Y1093_H1094R] yielded phosphorylation enrichment of 1.66

RGEEPYTKKAL [TTC21B_Y160_K157E] yielded phosphorylation enrichment of 0.991

KTKIGYSPLHQ [ANK1_Y735_L733I] yielded phosphorylation enrichment of 0.512

---

- assayed.target: Hck (UniProt P08631)
- Sequence (P08631 whole entry, looked up): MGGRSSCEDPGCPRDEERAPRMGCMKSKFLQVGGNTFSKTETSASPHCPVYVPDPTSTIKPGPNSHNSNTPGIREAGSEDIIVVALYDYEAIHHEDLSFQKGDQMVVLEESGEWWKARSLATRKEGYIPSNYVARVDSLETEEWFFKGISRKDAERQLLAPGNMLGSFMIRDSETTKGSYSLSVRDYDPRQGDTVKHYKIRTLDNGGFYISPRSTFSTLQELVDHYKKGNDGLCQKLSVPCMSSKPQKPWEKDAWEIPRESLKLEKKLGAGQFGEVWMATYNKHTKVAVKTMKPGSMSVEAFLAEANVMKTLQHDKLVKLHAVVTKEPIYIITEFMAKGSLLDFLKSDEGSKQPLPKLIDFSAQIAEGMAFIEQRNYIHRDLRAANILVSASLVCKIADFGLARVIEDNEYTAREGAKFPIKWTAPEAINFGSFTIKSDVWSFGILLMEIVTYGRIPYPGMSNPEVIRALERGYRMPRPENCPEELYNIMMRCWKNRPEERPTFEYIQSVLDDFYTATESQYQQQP
- procedure.summary: phosphorylation enrichment, bacterial display (enrichment ratio); higher = better substrate or ligand; peptides without Tyr show the background
sequences and their reported phosphorylation enrichment
Give only the figure.

# annotated cases, reported phosphorylation enrichment shown
{"columns": ["sequence.entry", "phosphorylation enrichment"],
 "data": [
  ["CEAMEYQESKQ [BTK_Y511_L512Q]", 0.705],
  ["RNAAEYPLSSG [ABL1_Y139_L140P]", 0.596],
  ["NGVSYYINLCQ [IGF2R_Y2025]", 0.581],
  ["NAPNSYGRRPT [CDKN2A_Y44_I49T]", 0.424],
  ["MYVKSYTIHYS [F5_Y2153]", 0.516]
]}

The reported phosphorylation enrichment value, Hck (UniProt P08631), for LGPSDYFGETA [PRKAR1A_Y323_I327T] reads 0.509

The reported phosphorylation enrichment value, Hck (UniProt P08631), for RAFRRYLLKQK [SCN2A_Y1919_YF] reads 0.63

The reported phosphorylation enrichment value, Hck (UniProt P08631), for ADKSAYLMGPN [MYH7_Y386_L390P] reads 0.508

The reported phosphorylation enrichment value, Hck (UniProt P08631), for MENFIYESMQY [CYP19A1_Y361_R365Q] reads 7.07

The reported phosphorylation enrichment value, Hck (UniProt P08631), for GTFEDYVEGLR [MYL6_Y89_YF] reads 0.508

The reported phosphorylation enrichment value, Hck (UniProt P08631), for ITSLLYHVVGW [GBA_Y412_N409S] reads 4.74

The reported phosphorylation enrichment value, Hck (UniProt P08631), for AEYGLYAAMVR [VSX2_Y222_G223A] reads 7.14

The reported phosphorylation enrichment value, Hck (UniProt P08631), for KTKIGYSPLHQ [ANK1_Y735_L733I] reads 0.435

---

- System: c-Src
- procedure.summary: phosphorylation enrichment, bacterial display (enrichment ratio); higher = better substrate or ligand; peptides without Tyr show the background
sequences and their reported phosphorylation enrichment
Give only the figure.

{"columns": ["sequence.entry", "phosphorylation enrichment"],
 "data": [
  ["NNDLCYWVPEL [IARS1_Y434]", 2.17],
  ["SLIDGYFRLTA [JAK2_Y372_YF]", 0.483],
  ["ADKSAYLMGPN [MYH7_Y386_L390P]", 0.631],
  ["STEAIYRRFSK [SH3PXD2B_Y42_YF]", 0.45]
]}

KTKIGYSPLHQ [ANK1_Y735_L733I] yielded phosphorylation enrichment of 0.425

LEGAKYVSHGA [ASS1_Y113_R108L] yielded phosphorylation enrichment of 0.605

TQPSPYAVFLF [RPGRIP1_Y823_R827L_YF] yielded phosphorylation enrichment of 5.76

FPMLNYKDIRK [CFAP221_Y798] yielded phosphorylation enrichment of 0.416

VDHFGYNKDDK [APOB_Y740_T741N] yielded phosphorylation enrichment of 0.485

---

sequences and their reported phosphorylation enrichment
- assayed.target: FGFR1 (UniProt P11362)
- Sequence (P11362 whole entry, looked up): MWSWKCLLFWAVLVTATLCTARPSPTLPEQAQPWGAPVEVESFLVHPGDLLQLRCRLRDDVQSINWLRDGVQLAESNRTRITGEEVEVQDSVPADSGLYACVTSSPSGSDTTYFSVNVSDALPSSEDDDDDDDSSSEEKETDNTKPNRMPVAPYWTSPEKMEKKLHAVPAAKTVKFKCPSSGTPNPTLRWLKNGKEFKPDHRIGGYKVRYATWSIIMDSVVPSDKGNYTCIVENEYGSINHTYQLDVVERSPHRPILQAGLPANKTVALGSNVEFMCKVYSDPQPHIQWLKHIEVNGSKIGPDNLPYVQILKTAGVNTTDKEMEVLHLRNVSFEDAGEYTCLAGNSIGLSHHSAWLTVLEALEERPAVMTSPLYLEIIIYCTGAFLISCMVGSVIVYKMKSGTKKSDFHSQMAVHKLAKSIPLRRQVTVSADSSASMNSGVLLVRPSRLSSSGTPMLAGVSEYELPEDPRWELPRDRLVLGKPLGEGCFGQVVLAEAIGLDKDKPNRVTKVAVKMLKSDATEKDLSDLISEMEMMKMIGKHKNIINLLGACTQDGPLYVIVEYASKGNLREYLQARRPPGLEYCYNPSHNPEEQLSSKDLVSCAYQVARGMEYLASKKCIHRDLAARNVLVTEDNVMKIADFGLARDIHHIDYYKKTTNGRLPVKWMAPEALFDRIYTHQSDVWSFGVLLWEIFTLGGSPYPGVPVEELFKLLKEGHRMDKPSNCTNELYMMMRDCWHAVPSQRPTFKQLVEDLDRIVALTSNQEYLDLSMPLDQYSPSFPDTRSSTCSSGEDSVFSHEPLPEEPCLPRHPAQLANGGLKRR
- procedure.summary: phosphorylation enrichment, bacterial display (enrichment ratio); higher = better substrate or ligand; peptides without Tyr show the background
Give only the figure.

{"columns": ["sequence.entry", "phosphorylation enrichment"],
 "data": [
  ["EKQARYEIVEE [CDH5_Y223_V227E]", 0.506],
  ["VREIRCQGGNR [VWF_Y1570_Y1570C]", 0.478],
  ["FSGDCYRIQGR [DDR2_Y741_Y740C_YF]", 0.431],
  ["ALEKTYNTFRS [B4GALNT2_Y538_YF]", 0.433],
  ["RLSELYLRRNR [CFAP410_Y68]", 0.703],
  ["GCVRMYELVHR [GLE1_Y135]", 0.498]
]}

Moving on to the next sequence.
NTGFFYDLFGG [PTPN11_Y63_D61Y_YF] yielded phosphorylation enrichment of 0.509

---

sequences and their reported SH2 binding enrichment
- assayed.target: SHP2-C SH2;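 further: peptide library displayed on the E. coli surface as eCPX fusions, selected cells deep-sequenced, score is each peptide's frequency after selection divided by its frequency in the input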
- procedure.summary: SH2 binding enrichment of the phosphorylated peptide, bacterial display (enrichment ratio); higher = better substrate or ligand; peptides without Tyr show the background
Give only the figure.

# annotated cases, reported SH2 binding enrichment shown
{"columns": ["sequence.entry", "assayed.target", "SH2 binding enrichment"],
 "data": [
  ["ICFSDYVEVAD [PHACTR1_Y525_R521C]", "SHP2-C SH2", 0.515],
  ["EKQARYEIVEE [CDH5_Y223_V227E]", "SHP2-C SH2", 0.921],
  ["KTVQDYLEKFY [MMP8_Y36]", "SHP2-C SH2", 0.686],
  ["PLRAFYLIARV [HLCS_Y635_D634Y_YF]", "SHP2-C SH2", 0.738],
  ["QGCSIYKDFFR [PLA2G2D_Y82_YF]", "SHP2-C SH2", 0.724],
  ["RLRKFHLGKFL [KLB_Y906_Y906H_YF]", "SHP2-C SH2", 0.406]
]}

Moving on to the next sequence.
FLGKGYSDGGC [MC4R_Y35_S30F] yielded SH2 binding enrichment of 0.832

---

- System: c-Abl (mouse)
- procedure.summary: phosphorylation enrichment, bacterial display (enrichment ratio); higher = better substrate or ligand; peptides without Tyr show the background
quantity.name: phosphorylation enrichment
Give only the figure.

{"columns": ["sequence.entry", "phosphorylation enrichment"],
 "data": [
  ["CLSHCYFSQIR [MCM3AP_Y873_L870S]", 0.484]
]}

AAAAVYTFLPD [MYORG_Y36_M35V] yielded phosphorylation enrichment of 1.12

---

- Tested on: AncSZ
- procedure.summary: phosphorylation enrichment, bacterial display (enrichment ratio); higher = better substrate or ligand; peptides without Tyr show the background
Classify as follows. Reported phosphorylation enrichment greater than or equal to 0.9: Yes. Reported phosphorylation enrichment below: No.

{"columns": ["sequence.entry", "label.class"],
 "data": [
  ["KNAEKYAEEDW [HSPA9_Y568_R573W]", "Yes"],
  ["TLMNAYSSRSH [KIF11_Y231]", "No"],
  ["HRNGMYGLHQD [SGSH_Y89_Q85R]", "No"],
  ["FGGLRYGFGVL [KRTAP20-2_Y13_YF]", "No"],
  ["MCTVDYLLRLQ [RYR1_Y3921_I3916M]", "Yes"]
]}

## Task Check if phosphorylation enrichment >= 0.9 (inclusive). Item: PSDLLYIPDIQ [ITGA2B_Y845_L847P]
## Result Yes

## Task Check if phosphorylation enrichment >= 0.9 (inclusive). Item: NELTFYCFKKD [CD59_Y87_C89Y_YF]
## Result Yes
